Examples of binders with documented kon follow.
# EXPERIMENTAL TARGET: T1, human CTLA-4.ECD-6×His (human, UniProt P16410 36-161)
# T1 construct: extracellular domain; also called WBP316.hCTLA-4.ECD-6×His; hCTLA4-His (WT)
# T1 sequence: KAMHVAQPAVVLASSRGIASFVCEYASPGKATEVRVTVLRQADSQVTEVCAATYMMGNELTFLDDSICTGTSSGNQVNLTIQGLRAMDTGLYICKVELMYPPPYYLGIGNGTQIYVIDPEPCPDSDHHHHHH
# PROTOCOL DESCRIPTION: SPR, antibody captured on anti-human Fc, CTLA-4 ECD as analyte, 1:1 fit
In your response, put the unit directly after the numeric value.

Some entries whose results are on file:
[[record]]
binder = "W3162-1.154.8 xAb.IgG1 (antibody, V domains shown, Chimeric: rat variable regions fused with constant region of human antibody (label xAb.IgG1)) VH: EVQLQQSGPEAGRPGSSVKISCKASGYTFTNYFMNWVKQSPGQGLEWIGRVDPENGRADYAEKFKKKATLTADTTSNTAYIHLSSLTSEDTATYFCARRAMDNYGFAYWGQGTLVTVSS VL: EIMLTQSPTIMAASLGEKITITCSANSSLSYMYWFQQKSGASPKLWVHGTSNLASGVPDRFSGSGSGTSYYLTINTMEAEDAATYFCHHWSNTQWTFGGGTKLELK"
test_result = "1.85e+06 M⁻¹ s⁻¹"

[[record]]
binder = "W3162-1.146.19 xAb.IgG1 (antibody, V domains shown, Chimeric: rat variable regions fused with constant region of human antibody (label xAb.IgG1)) VH: EVQLQESGPGLVKPSQSLSLTCSVTYHTITSGYDWTWIRKFPGNQMEWMGYISYSGNTNYNPSLKSRISITRDTSKNQFFLHLNSVTSEDTATYYCASMMVPHYYVMDAWGQGASVTVSS VL: DVVLTQTPPTSSATIGQSVSISCRSSQSLLNSDGNTYLYWYLQRPSQSPQLLIYLVSKLGSGVPNRFSGSGSGTDFTLKISGVEAEDLGLYYCVQGTHDPWTFGGGTKLELK"
test_result = "709000 M⁻¹ s⁻¹"


Now examine the next entry.
Data point: W3162-1.145.10 xAb.IgG1 (antibody, V domains shown, Chimeric: rat variable regions fused with constant region of human antibody (label xAb.IgG1)) VH: EVQLVESGGGLVQPGRSLKLSCAASDLTFSNYDMAWVRQTPTKGLEWVASISPNGGNTYYRDSVKGRFTVSRDNAKNSLYLQMDSLRSEDTATYYCARHLWFAYWGQGTLVTVSS VL: DIQMTQSPSSMSASLGDRVTISCQASQDIGSNLIWFQQKPGKSPRPMIYYATHLADGVPSRFSGSRSGSDYSLTISSLESEDVADYHCLQYKQYPRTFGGGTKLELK ; kon = 7.93e+06 M⁻¹ s⁻¹
